Recorded measurements of inhibition, one per entry
# assayed_target: Sialate O-acetylesterase (Homo sapiens)
# assay_info: blockers of sialate O-acetylesterase activity-probe labeling – biochemical, fluorescence polarization, FP-Rh probe, 1536-well HTS, primary screen (AID 1053197);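 note: 0% = plate median of compound wells and 100% = probe without SIAE protein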
# protocol_conditions: SIAE FP-Rh probe binding, at 9.66 µM, hits give high values
Hit rate of the full screen: of about 370,000 compounds, about 2,600 (0.7%) were called active. The sample holds actives, similar compounds and a random draw of the others, so the mix is not that of the screen.

compound=CSc1ccc(C=Nn2c(-c3ccc(F)cc3)n[nH]c2=S)cc1 property_name=inhibition experimental_result="2.39% (inactive)"
compound="COc1ccc(C2OCC3(CO2)SC(=O)NC3=O)cc1OC (centres undefined)" property_name=inhibition experimental_result="17.2% (active)"
compound=CCCCOCCCNC(=O)C[C@H]1C[C@@]2(C(=O)OC)C(=C[C@H](C(C)(C)C)O[C@@H]2C)N(CCc2ccc(OC)c(OC)c2)C1=O property_name=inhibition experimental_result="-1.28% (inactive)"

**Q:** # get_value(readout= inhibition, system= Sialate O-acetylesterase (Homo sapiens)) for `CCCCC[C@H](C)N1C[C@@H](COCc2ccccc2)Oc2cc(N3CC[C@@H](N(C)C)C3)ccc2S1(=O)=O`
**A:** 23.3% (active)

**Q:** Requested read-out inhibition, target or system Sialate O-acetylesterase (Homo sapiens), entry `COc1ccc([C@H]2OC(=O)C[C@H]2C(=O)N2CCN(c3ccccc3F)CC2)cc1OC`
**A:** -5.68% (inactive)

**Q:** # returns recorded inhibition (system: Sialate O-acetylesterase (Homo sapiens)) for CCOC(=O)C1=C(C)NC2=C(C(=O)CC(C)(C)C2)C1c1ccc2c(c1)OCO2 (centres undefined)
**A:** -1.17% (inactive)

**Q:** Lab note: need inhibition with Sialate O-acetylesterase (Homo sapiens) for entry `Clc1ccc(-n2c(COc3ccccc3)nnc2SCc2nc3ccccc3[nH]2)cc1` , please look it up.
**A:** -2.83% (inactive)

**Q:** What inhibition appears in the records for this compound with Sialate O-acetylesterase (Homo sapiens)? `CSc1ccc(Oc2cccc3c2S(=O)(=O)N([C@H](C)c2ccccc2)C[C@@H](COCc2ccccc2)O3)cc1C`
**A:** -4.88% (inactive)

**Q:** What measured inhibition is associated with `Nn1c(SCC(=O)Nc2cccc3ccccc23)nnc1-c1cc(-c2ccc(F)cc2)n[nH]1` on Sialate O-acetylesterase (Homo sapiens)?
**A:** -0.5% (inactive)

---

# key: entry, value: inhibition
# assayed_target: Sialate O-acetylesterase (Homo sapiens)
# assay_info: blockers of sialate O-acetylesterase activity-probe labeling – biochemical, fluorescence polarization, FP-Rh probe, 1536-well HTS, primary screen (AID 1053197);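 note: 0% = plate median of compound wells and 100% = probe without SIAE protein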
# protocol_conditions: SIAE FP-Rh probe binding, at 9.66 µM, hits give high values
The whole screen tested about 370,000 compounds, of which about 2,600 (0.7%) were called active. The entries come from a sample that favours actives as a whole.
# number only, unit % dropped from output

molecule=NC(=O)C1CCN(C(=O)COc2cccc3cccnc23)CC1 property_name=inhibition experimental_result=4

**Q:** For the compound shown here, `Cc1nc(CNc2ncnc3ccc(-c4ccc5c(c4)OCO5)cc23)cs1` , give the reported inhibition.
**A:** -10.9

**Q:** # inhibition lookup, item `CN(C(=O)COc1nnc(-c2cccs2)c(-c2cccs2)n1)c1ccccc1`
**A:** -4.55
